- Target under test: AhR (Homo sapiens, UniProt P35869)
- Construct: purchased INDIGO Biosciences
- Measurement description: cell-based Human AhR Reporter Assay System (luciferase)
- Assay context: EC50 (M) AhR, Human AhR Reporter Assay System; two independent dose responses, 3 to 4 replicas per assay; mean ± spread (n = 2)
- Description: Briefly, the reporter cells were recovered using the cell recovery medium for 5 h. […] Luciferase detection reagent was added after discarding the media and luminescence was measured using a Citation 5 Cell Imaging Multi-Mode Reader (BioTek, Winooski, VT, USA).
Endpoint: EC50
# answer = value followed by unit

COc1ccc2[nH]cc(CCN)c2c1 has a reported EC50 of 0.00029 M

* * *

Each entry below lists one item and its recorded EC50 value.
- Target under test: AhR (Homo sapiens, UniProt P35869)
- Construct: purchased INDIGO Biosciences
- Measurement description: cell-based Human AhR Reporter Assay System (luciferase)
- Assay context: Human AhR Reporter Assay System; two independent dose responses, 3 to 4 replicas per assay; mean ± spread (n = 2); read-out: EC50 (M) AhR
- Procedure: Briefly, the reporter cells were recovered using the cell recovery medium for 5 h. […] Luciferase detection reagent was added after discarding the media and luminescence was measured using a Citation 5 Cell Imaging Multi-Mode Reader (BioTek, Winooski, VT, USA).
Answer in M, number only, no unit symbol.

# Molecule, EC50 [M]
rows = [
    ("COc1cc2c(CCNC(C)=O)c[nH]c2cc1O [6-Hydroxymelatonin, 6-hydroxymelatonin]", "3.1e-05"),
]

# context switch: different molecule, same EC50
COc1ccc(NC=O)c(C(=O)CCNC(C)=O)c1 has a reported EC50 of 4.4e-05

* * *

- Target under test: PPARγ ligand-binding domain (Homo sapiens, UniProt P37231)
- Construct: PPARγ-LBD was added to the compounds; purchased Life Technologies Corporation
- Sequence (P37231 238-503 limits assumed): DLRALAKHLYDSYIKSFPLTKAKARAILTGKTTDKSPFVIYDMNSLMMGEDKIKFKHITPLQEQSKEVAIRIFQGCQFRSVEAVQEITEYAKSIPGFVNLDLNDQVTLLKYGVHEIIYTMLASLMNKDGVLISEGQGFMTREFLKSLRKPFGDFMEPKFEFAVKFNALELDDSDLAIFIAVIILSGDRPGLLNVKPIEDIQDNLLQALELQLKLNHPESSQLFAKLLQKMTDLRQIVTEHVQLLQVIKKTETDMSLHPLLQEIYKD
- Measurement description: LanthaScreen TR-FRET PPARγ Coactivator Assay Kit (binding to PPARγ LBD)
- Format: biochemical
- Assay context: EC50 (M) PPARγ, LanthaScreen TR-FRET PPARγ coactivator assay, PPARγ LBD; two independent dose responses, 3 to 4 replicas per assay
Endpoint: EC50 (M)
Answer in M, number only, no unit symbol.

COc1ccc2[nH]cc(CCN)c2c1 has a reported EC50 of 3e-05

* * *

- Target under test: AhR (Homo sapiens, UniProt P35869)
- Construct: purchased INDIGO Biosciences
- Sequence (P35869 11-848): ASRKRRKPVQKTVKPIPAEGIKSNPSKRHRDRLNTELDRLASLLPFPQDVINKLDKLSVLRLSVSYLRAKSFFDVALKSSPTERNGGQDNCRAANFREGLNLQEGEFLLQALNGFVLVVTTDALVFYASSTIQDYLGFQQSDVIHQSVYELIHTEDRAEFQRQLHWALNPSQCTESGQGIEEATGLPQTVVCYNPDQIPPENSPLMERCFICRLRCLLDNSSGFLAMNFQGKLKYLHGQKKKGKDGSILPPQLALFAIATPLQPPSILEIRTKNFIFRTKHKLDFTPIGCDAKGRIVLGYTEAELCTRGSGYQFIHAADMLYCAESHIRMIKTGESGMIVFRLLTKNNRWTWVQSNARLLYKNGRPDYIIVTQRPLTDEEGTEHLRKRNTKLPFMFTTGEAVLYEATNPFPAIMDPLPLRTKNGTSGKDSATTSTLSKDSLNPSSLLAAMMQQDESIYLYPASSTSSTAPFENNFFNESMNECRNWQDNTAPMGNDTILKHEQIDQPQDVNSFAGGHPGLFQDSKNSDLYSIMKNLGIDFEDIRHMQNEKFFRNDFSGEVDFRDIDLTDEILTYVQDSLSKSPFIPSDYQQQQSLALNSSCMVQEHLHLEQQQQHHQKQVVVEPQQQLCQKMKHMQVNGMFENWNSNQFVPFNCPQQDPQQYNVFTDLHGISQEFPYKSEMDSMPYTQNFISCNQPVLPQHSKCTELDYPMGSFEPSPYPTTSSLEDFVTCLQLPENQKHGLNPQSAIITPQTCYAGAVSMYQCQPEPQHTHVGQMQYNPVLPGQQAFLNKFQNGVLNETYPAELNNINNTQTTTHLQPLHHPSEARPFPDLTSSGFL
- Measurement description: cell-based Human AhR Reporter Assay System (luciferase)
- Assay context: EC50 (AhR, representative dose response, Figure 1), value in Figure 1; representative experiment
Endpoint: pEC50
For clarity, pEC50 is expressed as the negative log10 of concentration in mol/L.

COc1ccc2[nH]cc(CCN)c2c1 has a reported pEC50 of 3.30

* * *

Each entry below lists one item and its recorded EC50 value.
- Target under test: PPARγ ligand-binding domain (Homo sapiens)
- Construct: PPARγ-LBD was added to the compounds; purchased Life Technologies Corporation
- Measurement description: LanthaScreen TR-FRET PPARγ Coactivator Assay Kit (binding to PPARγ LBD)
- Format: biochemical
- Assay context: value in Figure 3A; representative experiment; read-out: EC50 (PPARγ, representative dose response, Figure 3A)
Answer in µM, number only, no unit symbol.

Study these solved cases before continuing.
# Compound, Target under test, EC50, µM
rows = [
    ("COc1ccc(NC=O)c(C(=O)CCNC(C)=O)c1", "PPARγ ligand-binding domain (Homo sapiens)", 110),
    ("COc1ccc2[nH]cc(CCNC(C)=O)c2c1 [Melatonin, N-acetyl-5-methoxytryptamine, reference compound]", "PPARγ ligand-binding domain (Homo sapiens)", 950),
]

COc1cc2c(CCNC(C)=O)c[nH]c2cc1O [6-Hydroxymelatonin, 6-hydroxymelatonin] has a reported EC50 of 100

* * *

- Target under test: AhR (Homo sapiens, UniProt P35869)
- Construct: purchased INDIGO Biosciences
- Measurement description: cell-based Human AhR Reporter Assay System (luciferase)
- Assay context: value in Figure 1; representative experiment; read-out: EC50 (AhR, representative dose response, Figure 1)
Endpoint: EC50 (µM)
Answer in µM, number only, no unit symbol.

# Compound, EC50 (µM)
records = [
    ("COc1ccc(NC=O)c(C(=O)CCNC(C)=O)c1", 75),
]

# context switch: different compound, same EC50
COc1cc2c(CCNC(C)=O)c[nH]c2cc1O [6-Hydroxymelatonin, 6-hydroxymelatonin] has a reported EC50 of 33
